test: solvent given as SMILES; conditions: in CCCCOCCCC
reported metric: emission maximum (nm)
Answer with a number only, understood to be in nm.

Entry under review: c1ccc(-c2nc(-c3ccc(-c4ccc(N(c5ccccc5)c5ccccc5)cc4)cn3)oc2-c2ccccc2)cc1 . Reported emission maximum?
431

What about this molecule? O=S(=O)(c1ccc(-c2ccc(-c3nc4c5ccccc5c5ccccc5c4n3-c3ccccc3)cc2)cc1)c1ccc(-c2ccc(-c3nc4c5ccccc5c5ccccc5c4n3-c3ccccc3)cc2)cc1
420

What about this molecule? c1ccc(-c2nn(-c3ccccc3)c3nc4ccccc4cc23)cc1
454.96

What about this molecule? CCCCn1c2c(-c3ccc(N(c4ccccc4)c4ccccc4)cc3)cc(C#N)cc2c2cc(C#N)cc(-c3ccc(N(c4ccccc4)c4ccccc4)cc3)c21
419

What about this molecule? CCCCn1c2ccc(C#N)cc2c2cc(C#N)cc(-c3ccc(N(c4ccccc4)c4ccccc4)cc3)c21
412

What about this molecule? COc1cc(/C=C/c2ccccc2)cc(OC)c1
372

What about this molecule? Clc1nc(Nc2ccccc2)nc(Nc2ccc3cc4ccccc4cc3c2)n1
430

What about this molecule? COc1nc(Nc2ccc3c4c(cccc24)C(=O)c2ccccc2-3)nc(OC)n1
516

What about this molecule? CC(C)(C)c1ccc(-c2nc3c4ccccc4c4ccccc4c3n2-c2ccc(C(C)(C)C)cc2)cc1
389

###

experiment: solvent given as SMILES; conditions: in Cc1ccccc1
Response field label: string, one of 1 (emission maximum strictly below 500 nm) or -1.

Take the compound CC(=O)Nc1ccc(S(=O)(=O)O)c(/N=N/c2c(O)c3ccccc3n(C)c2=O)c1 and say whether its emission maximum is less than 500 nm.
-1

What about this compound? CCOC(=O)COc1ccc(/C=C/c2c(CC)c(C)c3n2[B-](F)(F)[N+]2=C(c4[nH]c(C)c(CC)c4C)c4ccccc4C2=C3C)cc1
-1

What about this compound? COc1ccc(-c2nc3c(c4c2-c2ccccc2CC4)-c2ccccc2CC3)cc1
1

What about this compound? Cc1cc(C)c(B(c2ccc(-c3nc4c5ccccc5c5ccccc5c4[nH]3)cc2)c2c(C)cc(C)cc2C)c(C)c1
1

What about this compound? O=C1c2ccccc2C(=O)C1C1C(=O)c2c3ccccc3cc3cc4ccccc4c1c23 (stereo not drawn)
-1

What about this compound? CC1(C)[C@@H]2CC[C@]1(C)c1nc3cc(-c4cccs4)ccc3nc12
1

###

assay: solvent given as SMILES; details: in CCOC(C)=O
Would you kindly list emission maximum for each of these compounds?
Answer with a number only, understood to be in nm.

Entry under review: CCOC(=O)CSc1nc(-c2ccccc2)c(C)c(C#N)c1C#N . Reported emission maximum?
421

What about this compound? N#Cc1cc2ccccc2oc1=N
410

What about this compound? O=C1CCCc2c1[nH]c1cc3c(cc21)OCO3
388.9

What about this compound? OCc1cc2c(cc3ccc4cccc5ccc2c3c45)[nH]1
404

What about this compound? Cc1ccc2c(CC(=O)NN)coc2c1
390

What about this compound? CN(C)c1cccc2c1C(=O)c1ccccc1C2=O
585

What about this compound? CCCCC1(CCCC)c2cc(C#Cc3ccc4ccc5cccc6ccc3c4c56)ccc2-c2ccc(N(c3ccccc3)c3ccccc3)cc21
490

What about this compound? O=c1oc2ccccc2cc1-c1nc2ccccc2o1
443

What about this compound? CCCCn1c2c(-c3ccc(N(c4ccccc4)c4ccccc4)cc3)cc(C#N)cc2c2cc(C#N)cc(-c3ccc(N(c4ccccc4)c4ccccc4)cc3)c21
443

What about this compound? COc1cccc(-n2c(-c3ccc(F)cc3)nc(C)c2C)c1
367

What about this compound? CCNc1ccc2c(C(F)(F)F)cc(=O)oc2c1
478

What about this compound? COc1ccc(/C=C/C2=[O+][B-](F)(F)OC(/C=C/c3ccc(OC)cc3)=C2c2ccccc2)cc1
534

What about this compound? CCCCC1(CCCC)c2cc(C#Cc3ccc4ccc5cccc6ccc3c4c56)ccc2-c2ccc(C#Cc3ccc4ccc5cccc6ccc3c4c56)cc21
433

What about this compound? CC1(C)[C@@H]2CC[C@]1(C)c1nc3cc(-c4cccs4)ccc3nc12
406

What about this compound? Cc1ccc(C2=C3C=CC(c4ccccc4)=[N+]3[B-](F)(F)n3c2ccc3-c2ccccc2)cc1
583

What about this compound? CCn1c2ccccc2c2cc(-c3cc(-c4ccc5c(c4)c4ccccc4n5CC)nc(SC)n3)ccc21
392

What about this compound? CN(C)c1ccc(/C=C2\CC/C(=C\c3ccc(C#N)cc3)C2=O)cc1
643

What about this compound? COc1ccc(-n2c3ccccc3c3cc(C=C(C#N)C#N)ccc32)cc1
495

What about this compound? CCC1=C(C)C2=Cc3cc(I)c(I)n3[B-](F)(F)[N+]2=C1C
551.5

What about this compound? CC1=[N+]2C(=C(c3ccc4c(c3)Cc3ccccc3-4)c3ccc(C)n3[B-]2(F)F)C=C1c1cc2n(c1)[B-](F)(F)[N+]1=CC=CC1=C2c1c(C)cc(C)cc1C
675

###

test: solvent given as SMILES; conditions: in ClC(Cl)Cl
Would you kindly list emission maximum for each of these compounds?
Answer with a number only, understood to be in nm.

Entry under review: CC(C)(C)c1ccc2c(c1)c1cc(C(C)(C)C)ccc1n2-c1ccccc1-c1nc(-c2ccccc2-n2c3ccc(C(C)(C)C)cc3c3cc(C(C)(C)C)ccc32)nc(-c2ccccc2P(=O)(c2ccccc2)c2ccccc2)n1 . Reported emission maximum?
516.24

What about this compound? COc1cc(/C=C/c2nc3ccccc3s2)c(OC)cc1/C=C/c1nc(C)nc(/C=C/c2cc(OC)c(/C=C/c3nc4ccccc4s3)cc2OC)n1
500

What about this compound? F[B-]1(F)OC(c2ccc(Br)cc2)=Cc2c3ccccc3c3ccccc3[n+]21
449

###

assay: solvent given as SMILES; settings: in ClC(Cl)Cl
Would you kindly list emission maximum for each of these compounds?
Answer with a number only, understood to be in nm.

Entry under review: CC(C)(C)c1ccc2oc3nc4oc5ccc(N6c7ccccc7Oc7ccccc76)cc5c4cc3c2c1 . Reported emission maximum?
491

What about this compound? CN1C(=CC2=C([O-])C(=Cc3oc4ccccc4[n+]3C)C2=C(C#N)C#N)Sc2ccccc21
682

What about this compound? CCCCCCCCN1C(=O)c2ccc3c4c(-c5ccc6c(c5)c5ccccc5n6-c5ccccc5)cc5c6c(cc(-c7ccc8c(c7)c7ccccc7n8-c7ccccc7)c(c7ccc(c2c37)C1=O)c64)C(=O)N(CCCCCCCC)C5=O
663

What about this compound? CN(C)c1ccc2nc(-c3ccc(/C=N/c4ccccc4)cc3)sc2c1
534

What about this compound? O=S(=O)(c1cccc(N2c3ccccc3Oc3ccccc32)c1)c1cccc(N2c3ccccc3Oc3ccccc32)c1
572

What about this compound? CCC1=C(C)C(=O)n2c1cc1c(C)c(CC(=O)OC)c(C)n1c2=O
490

What about this compound? COc1ccc(-n2nc(C#N)c(N3CCCC3)n2)cc1
406

What about this compound? CN1C(=CC2=C([O-])C(=CC3=[N+](C)c4ccccc4C3(C)C)C2=NC#N)C(C)(C)c2ccccc21
665

What about this compound? COc1ccc(-c2cc3c4c(c2)CCc2cc(-c5ccc(OC)cc5)cc(c2-4)CC3)cc1
391.46

What about this compound? CCCCCCCCCCCCOc1ccc(C2=C3C(=O)N(CC(OCC)OCC)C(c4ccc(OCCCCCCCCCCCC)c(OCCCCCCCCCCCC)c4)=C3C(=O)N2CC(OCC)OCC)cc1OCCCCCCCCCCCC
541

What about this compound? COc1ccc2n1[B-](F)(F)[N+]1=C(c3ccccc3)C=CC1=C2c1ccc(C)cc1
557

What about this compound? CC(=C(C#Cc1ccccc1)C#Cc1ccccc1)c1ccc(C(C)=C(C#Cc2ccccc2)C#Cc2ccccc2)cc1
454

What about this compound? COc1cnc(-c2cc[n+](C3=C(F)C(F)(F)C(F)(F)[C-]3F)cc2)s1
462

What about this compound? CCN(CC)c1ccc2c(c1)OC1=C(/C=C/C3=[N+](C)c4ccc5ccccc5c4C3(C)C)CCCC1=C2c1ccccc1C(=O)O
761

What about this compound? Cc1cccc(C)c1-c1cc2c(C)c3c4cc5nc6ccc7c8c(C)c9cc(-c%10c(C)cccc%10C)c(-c%10c(C)cccc%10C)cc9c(C)c8c7c6nc5cc4c3c(C)c2cc1-c1c(C)cccc1C
576

What about this compound? O=C1C2=C3c4sccc4C=CN3C(=O)C2=C2c3sccc3C=CN12
609

What about this compound? c1ccc2c(-c3ccc(-c4nnc(-c5ccc(-c6nnc(-c7ccc(-c8cccc9ccccc89)s7)o6)cc5)o4)s3)cccc2c1
410

What about this compound? COc1ccc(C2=Cc3ccc4ccccc4[n+]3[B-](F)(F)O2)cc1
457

###

experiment: solvent given as SMILES; details: in CCOC(C)=O
reported metric: emission maximum (nm)
Answer with a number only, understood to be in nm.

Entry under review: CC(C)(C)c1ccc(-c2nc3c4ccccc4c4ccccc4c3n2-c2ccc(C(C)(C)C)cc2)cc1 . Reported emission maximum?
390

What about this molecule? O=c1[nH]c(=O)c2scc([C@H]3C[C@H](O)[C@@H](CO)O3)c2[nH]1
343

What about this molecule? N#Cc1cc2ccc(O)cc2oc1=N
414

What about this molecule? Cc1ccc(C2=C3C=CC(Cl)=[N+]3[B-](F)(F)n3c(Cl)ccc32)cc1
521

What about this molecule? CC(=O)Nc1ccc(S(=O)(=O)O)c(/N=N/c2c(O)c3ccccc3n(C)c2=O)c1
523

What about this molecule? O=S(=O)(c1ccc(-c2ccc(-c3nc4c5ccccc5c5ccccc5c4n3-c3ccccc3)cc2)cc1)c1ccc(-c2ccc(-c3nc4c5ccccc5c5ccccc5c4n3-c3ccccc3)cc2)cc1
448

What about this molecule? CCCCN1c2ccccc2Sc2cc(/C=C/C3=Nc4ccc5ccccc5c4C3(C)C)ccc21
564

What about this molecule? CCN(CC)c1ccc2cc(/C=C/C(=C(C#N)C#N)c3ccc4c(c3)c3ccccc3n4CC)c(=O)oc2c1
590

What about this molecule? CN1C(=O)/C(=C/c2ccncc2)N=C1c1ccccc1
472
